- system tested: recombinant human AKR1C3 (Homo sapiens (Human), UniProt P42330)
- Sequence (P42330 whole entry): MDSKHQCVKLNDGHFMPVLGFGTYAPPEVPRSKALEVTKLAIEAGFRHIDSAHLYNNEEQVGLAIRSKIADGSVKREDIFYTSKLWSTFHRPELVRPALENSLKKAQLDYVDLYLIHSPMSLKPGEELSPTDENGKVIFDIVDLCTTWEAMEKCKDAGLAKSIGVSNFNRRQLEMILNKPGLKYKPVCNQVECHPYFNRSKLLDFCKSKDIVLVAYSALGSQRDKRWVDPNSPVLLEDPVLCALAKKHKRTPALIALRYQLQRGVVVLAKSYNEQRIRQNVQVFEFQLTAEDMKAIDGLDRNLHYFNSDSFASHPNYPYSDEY
- protocol notes: AKR1C3-inhibitory activity assay (Coumberone to Coumberol fluorescence)
- test conditions: recombinant human AKR1C3, 15 min pre-incubation, 10 μM NADPH, 0.3 μM Coumberone
readout: pIC50
pIC50 (log units): -log10 of the concentration in mol/L.

The molecule O=C(c1cnn[nH]1)N1CC2CCC(C1)N2S(=O)(=O)c1cc(F)cc(F)c1 [Example 3] showed pIC50 equal to 8.85

Looking up N#Cc1cccc(S(=O)(=O)N2C3CCC2CN(C(=O)c2cnn[nH]2)C3)c1 , I found its pIC50 recorded as 8.54

Form: molecule = Cc1ccc(S(=O)(=O)N2C3CCC2CN(C(=O)c2cnn[nH]2)C3)cc1 ; pIC50 = 8.72

Field pIC50 (entry O=C(c1cnn[nH]1)N1CC2CCC(C1)N2S(=O)(=O)c1c(F)cccc1F ) reads 8.74

* * *

What IC50 was measured for each of the following?
- system tested: recombinant human AKR1C3 (Homo sapiens (Human))
- protocol notes: AKR1C3-inhibitory activity assay (Coumberone to Coumberol fluorescence)
- test conditions: recombinant human AKR1C3, 15 min pre-incubation, 10 μM NADPH, 0.3 μM Coumberone

So, Cc1ccccc1S(=O)(=O)N1C2CCC1CN(C(=O)c1cnn[nH]1)C2 [Example 6] ? Its IC50 was 1.7 nM

The measured IC50 associated with O=C(c1cnn[nH]1)N1CC2CCC(C1)N2S(=O)(=O)c1cccc(Br)c1 [Example 31] reads 0.5 nM

The compound identified as O=C(c1c[nH]nn1)N1CC2CCC(C1)N2S(=O)(=O)c1ccccc1C(F)(F)F [Example 2] registered its IC50 at 1 nM

For this compound ( O=C(c1cnn[nH]1)N1CC2CCC(C1)N2S(=O)(=O)c1ccc([N+](=O)[O-])cc1 [Example 43] ), measured IC50 is 9.1 nM

get_value(item= O=C(c1cnn[nH]1)N1CC2CCC(C1)N2S(=O)(=O)c1ccccc1OC(F)(F)F [Example 42] , readout=IC50) returns 1.1 nM

For Cc1cc(C)c(S(=O)(=O)N2C3CCC2CN(C(=O)c2cnn[nH]2)C3)c(C)c1 [Example 45] the compound record lists IC50 as 1.4 nM

Record summary for O=C(c1cnn[nH]1)N1CC2CCC(C1)N2S(=O)(=O)c1ccc(Br)cc1 [Example 38] : reported IC50 = 1.5 nM

Summary for this compound, O=C(c1cnn[nH]1)N1CC2CCC(C1)N2S(=O)(=O)c1cccc2nonc12 [Example 55] : IC50 is 2.7 nM

O=C(c1c[nH]nn1)N1CC2CCC(C1)N2S(=O)(=O)c1cc(C(F)(F)F)cc(C(F)(F)F)c1 [Example 10] yielded IC50 of 7.3 nM

Noted for O=C(c1cnn[nH]1)N1CC2CCC(C1)N2S(=O)(=O)c1cc(Cl)ccc1Cl [Example 30] : its IC50 reads 0.6 nM

The recorded IC50 for entry N#Cc1c(Cl)cccc1S(=O)(=O)N1C2CCC1CN(C(=O)c1cnn[nH]1)C2 [Example 68] equals 1.3 nM

Documented IC50 of O=C(c1cnn[nH]1)N1CC2CCC(C1)N2S(=O)(=O)c1ccc(F)cc1F [Example 25] : 2.6 nM

So, O=C(c1cnn[nH]1)N1CC2CCC(C1)N2S(=O)(=O)c1ccccc1F [Example 15] ? Its IC50 was 1.5 nM

Documented IC50 of O=C(c1cnn[nH]1)N1CC2CCC(C1)N2S(=O)(=O)c1cc(Cl)ccc1F [Example 61] : 1.5 nM

So, Cc1cc(C)cc(S(=O)(=O)N2C3CCC2CN(C(=O)c2cnn[nH]2)C3)c1 [Example 18] ? Its IC50 was 1 nM

So, O=C(c1cnn[nH]1)N1CC2CCC(C1)N2S(=O)(=O)c1ccc(F)c(Cl)c1 [Example 28] ? Its IC50 was 1.2 nM

Please fill in: IC50 reported for O=C(c1cnn[n-]1)N1CC2CCC(C1)N2S(=O)(=O)c1cccc(F)c1.[Na+] [Example 76] = 1.1 nM

// recorded IC50 for COc1cc(F)ccc1S(=O)(=O)N1C2CCC1CN(C(=O)c1cnn[nH]1)C2 [Example 72] : 1.1 nM

Quick note, IC50 for Cc1ccc(Cl)cc1S(=O)(=O)N1C2CCC1CN(C(=O)c1cnn[nH]1)C2 [Example 63] landed at 1.7 nM

Notebook: N#Cc1ccc(Cl)c(S(=O)(=O)N2C3CCC2CN(C(=O)c2cnn[nH]2)C3)c1 [Example 74] , IC50 read as 5.5 nM

Item: Cc1ccc(C)c(S(=O)(=O)N2C3CCC2CN(C(=O)c2cnn[nH]2)C3)c1 [Example 19] | IC50: 1.1 nM

Measured IC50, O=C(c1cnn[nH]1)N1CC2CCC(C1)N2S(=O)(=O)c1cccc([N+](=O)[O-])c1 [Example 44] : 1.9 nM

Item: O=C(c1cnn[nH]1)N1CC2CCC(C1)N2S(=O)(=O)c1cc(F)ccc1Cl [Example 70] | IC50: 0.5 nM

# compound Cc1cccc(S(=O)(=O)N2C3CCC2CN(C(=O)c2cnn[nH]2)C3)c1 [Example 13] ; its IC50 = 1.4 nM

Documented IC50 of O=C(c1cnn[nH]1)N1CC2CCC(C1)N2S(=O)(=O)c1ccc(Cl)c(Cl)c1 [Example 48] : 1.1 nM

Recorded IC50 (compound COc1cc(C)ccc1S(=O)(=O)N1C2CCC1CN(C(=O)c1cnn[nH]1)C2 [Example 67] ): 1 nM

Lab book: IC50 of O=C(c1cnn[nH]1)N1CC2CCC(C1)N2S(=O)(=O)c1cccc(F)c1Cl [Example 71] noted as 0.8 nM

Sample COc1ccccc1S(=O)(=O)N1C2CCC1CN(C(=O)c1cnn[nH]1)C2 [Example 64] ; IC50 observed: 1.3 nM

Given item O=C(c1c[nH]nn1)N1CC2CCC(C1)N2S(=O)(=O)c1ccc(Cl)s1 [Example 11] , the value recorded as its IC50 is 1.1 nM

Entry O=C(c1cnn[nH]1)N1CC2CCC(C1)N2S(=O)(=O)c1ccccc1[N+](=O)[O-] [Example 46] — recorded IC50 = 0.9 nM

// O=C(c1cnn[nH]1)N1CC2CCC(C1)N2S(=O)(=O)c1cccc(Cl)c1F [Example 27] : IC50 value = 0.9 nM

For O=C(c1cnn[nH]1)N1CC2CCC(C1)N2S(=O)(=O)c1ccc(C(F)(F)F)cc1 [Example 36] the compound record lists IC50 as 3.3 nM

get_value(item= O=C(c1cnn[nH]1)N1CC2CCC(C1)N2S(=O)(=O)c1cccc2ccccc12 [Example 39] , readout=IC50) returns 1.3 nM

response.value for O=C(c1cnn[nH]1)N1CC2CCC(C1)N2S(=O)(=O)c1ccc(OC(F)(F)F)cc1 [Example 41] (field: IC50) = 6.5 nM

* * *

- system tested: recombinant human AKR1C3 (Homo sapiens (Human))
- protocol notes: AKR1C3-inhibitory activity assay (Coumberone to Coumberol fluorescence)
- test conditions: recombinant human AKR1C3, 15 min pre-incubation, 10 μM NADPH, 0.3 μM Coumberone
Can you tell me pIC50 for the items I'm about to list?
Bear in mind: pIC50 is minus log10 of a mol/L concentration; give just that figure.

Recorded pIC50 (molecule O=C(c1cnn[nH]1)N1CC2CCC(C1)N2S(=O)(=O)c1cccc(F)c1 ): 8.92

Entry Cc1c(Cl)cccc1S(=O)(=O)N1C2CCC1CN(C(=O)c1cnn[nH]1)C2 — recorded pIC50 = 8.96

Lab note: O=C(c1cnn[nH]1)N1CC2CCC(C1)N2S(=O)(=O)c1ccc(F)c(F)c1F gave pIC50 of 8.66

Measured pIC50 of O=C(c1c[nH]nn1)N1CC2CCC(C1)N2S(=O)(=O)c1cc(Cl)cc(Cl)c1 : 9.05

pIC50 recorded for this molecule, O=C(c1cnn[nH]1)N1CC2CCC(C1)N2S(=O)(=O)c1ccc2c(c1)OCO2 , is 9.05

Record summary for Cc1cccc(Cl)c1S(=O)(=O)N1C2CCC1CN(C(=O)c1cnn[nH]1)C2 : reported pIC50 = 9.10

So, COc1cccc(S(=O)(=O)N2C3CCC2CN(C(=O)c2cnn[nH]2)C3)c1 ? Its pIC50 was 9.00

pIC50 in this record for O=C(c1cnn[nH]1)N1CC2CCC(C1)N2S(=O)(=O)c1cc(F)c(F)cc1F : 8.55

# pIC50 (molecule: Cc1ccc(Br)cc1S(=O)(=O)N1C2CCC1CN(C(=O)c1cnn[nH]1)C2 ) is 9.30

The molecule O=C(c1cnn[nH]1)N1CC2CCC(C1)N2S(=O)(=O)c1cccc(C(F)(F)F)c1 showed pIC50 equal to 9.05

* * *

Record form. Attribute: IC50. Fill in for each entry.
- system tested: recombinant human AKR1C3 (Homo sapiens (Human))
- protocol notes: AKR1C3-inhibitory activity assay (Coumberone to Coumberol fluorescence)
- test conditions: recombinant human AKR1C3, 15 min pre-incubation, 10 μM NADPH, 0.3 μM Coumberone
Your answer should be a plain number; it is taken to be in nM.

// field: IC50; key: O=C(c1cnn[nH]1)N1CC2CCC(C1)N2S(=O)(=O)c1c(Cl)cc(Cl)cc1Cl [Example 56] ; value = 1.4

The value of IC50 measured for the compound O=C(c1cnn[nH]1)N1CC2CCC(C1)N2S(=O)(=O)c1cc(F)cc(F)c1 [Example 75] turned out to be 0.7

For O=C(c1cnn[nH]1)N1CC2CCC(C1)N2S(=O)(=O)c1ccc(F)c(F)c1 [Example 23] the compound record lists IC50 as 2.2

Consider O=C(c1cnn[nH]1)N1CC2CCC(C1)N2S(=O)(=O)c1cc(Cl)ccc1C(F)(F)F [Example 34] . Its measured IC50 is 1.9

Record summary for N#Cc1cc(S(=O)(=O)N2C3CCC2CN(C(=O)c2cnn[nH]2)C3)ccc1F [Example 60] : reported IC50 = 28.4

For this compound ( COc1ccc(S(=O)(=O)N2C3CCC2CN(C(=O)c2cnn[nH]2)C3)cc1 [Example 21] ), measured IC50 is 2

Lab note: N#Cc1ccccc1S(=O)(=O)N1C2CCC1CN(C(=O)c1cnn[nH]1)C2 [Example 35] gave IC50 of 6

Documented IC50 of O=C(c1c[nH]nn1)N1CC2CCC(C1)N2S(=O)(=O)c1cccc(S(F)(F)(F)(F)F)c1 [Example 8] : 1.3
